- Target Entity: XIAP; also: test concentration or dose not given here
- Condition Label: ASO
These antisense oligonucleotides have a phosphorothioate backbone; sugars and methylation of C are not fully specified.
I'd appreciate it if you could supply remaining target (mRNA or protein) (fraction of control) values for the items below.

remaining target (mRNA or protein) (fraction of control) lookup needed for `TCCACCAGCATGGAACAATT` , thanks. 0.71

I am curious: what remaining target (mRNA or protein) (fraction of control) value has been reported for `TAGCAAAAGTTTTTAATCTA` ? 0.99

I would be grateful if you could share the reported remaining target (mRNA or protein) (fraction of control) for `TATGATGCTTCTTATTCTTA` . 0.65

For the sequence `TTCAAAACTGTTAAAAGTCA` , what remaining target (mRNA or protein) (fraction of control) is on record? ≥ 1

Would you kindly share the measured remaining target (mRNA or protein) (fraction of control) for `TAGGACTTGTCCACCTTTTC` ? 0.58

// lookup remaining target (mRNA or protein) (fraction of control) for `CAAAACTGTTAAAAGTCATC` ≥ 1

For the sequence `ACTGTTAAAAGTCATCTTCT` , what remaining target (mRNA or protein) (fraction of control) is on record? 0.87

For `AGAAAATGGACAGAATCCTA` , what is its reported remaining target (mRNA or protein) (fraction of control)? 0.74

# query: remaining target (mRNA or protein) (fraction of control) of entry `CTATCATTAAATACGCTTTC` 0.99

What value of remaining target (mRNA or protein) (fraction of control) has been recorded for this entry: `TAATGGAATTCAATCCTGAT` 0.83

Query (sequence): `CCAGGCACGATCACAAGGTT` ; field requested: remaining target (mRNA or protein) (fraction of control) ≥ 1

Given the entry `TCCTTGTTAACTGAGTATAT` , report its measured remaining target (mRNA or protein) (fraction of control). 0.69

Name the recorded remaining target (mRNA or protein) (fraction of control) for `AAGTCATCTTCTCTTGAAAA` . 0.6

Any idea what its remaining target (mRNA or protein) (fraction of control) is? The sequence is `TGTTAAAAGTCATCTTCTCT` 0.84

Param item = `ATTCGTATAGCTTCTTGTAC` ; retrieve measured remaining target (mRNA or protein) (fraction of control). 0.61

So what's the measured remaining target (mRNA or protein) (fraction of control) for this one? `GGTTAGGTTACTGATGTTAG` ≥ 1
